Target: T1, human DLL3 endogenously expressed on SHP77 and NCI-H82 cells (human, UniProt Q9NYJ7 27-618)
T1 construct: whole, on cells; cells endogenously expressing DLL3; also called SHP77 cells; SHP-77 cells
T1 sequence (looked up): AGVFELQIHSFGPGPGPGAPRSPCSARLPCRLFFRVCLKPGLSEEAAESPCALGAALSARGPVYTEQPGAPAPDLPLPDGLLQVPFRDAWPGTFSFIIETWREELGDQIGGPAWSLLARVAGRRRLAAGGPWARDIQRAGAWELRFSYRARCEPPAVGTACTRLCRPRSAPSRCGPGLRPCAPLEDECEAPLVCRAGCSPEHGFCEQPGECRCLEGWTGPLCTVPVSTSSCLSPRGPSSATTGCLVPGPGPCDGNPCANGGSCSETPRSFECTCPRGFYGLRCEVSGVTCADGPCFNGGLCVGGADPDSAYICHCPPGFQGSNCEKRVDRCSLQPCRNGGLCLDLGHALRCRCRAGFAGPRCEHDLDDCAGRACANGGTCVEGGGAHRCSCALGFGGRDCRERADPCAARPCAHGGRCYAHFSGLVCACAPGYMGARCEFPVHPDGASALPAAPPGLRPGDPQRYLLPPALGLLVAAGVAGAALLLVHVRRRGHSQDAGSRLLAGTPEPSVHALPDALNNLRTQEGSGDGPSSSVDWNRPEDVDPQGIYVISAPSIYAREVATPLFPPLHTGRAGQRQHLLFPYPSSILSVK
Assay: FACS, SHP77 and NCI-H82 cells
endpoint name: binding result

Which binding result reading was recorded for the binder Hab015VL5VH1a-hFc (Fc fusion, humanized mab015, VL-linker-VH-human IgG1 Fc; also called Hab015L5H1a; not shown: linker; human IgG1 Fc fragment) scFv (part 1 of 2): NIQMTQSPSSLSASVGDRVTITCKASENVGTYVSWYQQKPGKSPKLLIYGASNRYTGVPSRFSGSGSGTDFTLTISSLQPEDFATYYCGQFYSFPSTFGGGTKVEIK scFv (part 2 of 2): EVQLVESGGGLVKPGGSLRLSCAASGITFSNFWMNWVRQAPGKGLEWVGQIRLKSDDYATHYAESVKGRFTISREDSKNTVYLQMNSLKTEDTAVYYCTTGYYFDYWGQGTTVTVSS ?
binds

Which binding result reading was recorded for the binder Hab015VL4VH1a-hFc (Fc fusion, humanized mab015, VL-linker-VH-human IgG1 Fc; also called Hab015L4H1a; not shown: linker; human IgG1 Fc fragment) scFv (part 1 of 2): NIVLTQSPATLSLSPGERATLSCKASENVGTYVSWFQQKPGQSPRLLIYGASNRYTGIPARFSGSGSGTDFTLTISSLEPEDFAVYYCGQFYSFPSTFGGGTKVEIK scFv (part 2 of 2): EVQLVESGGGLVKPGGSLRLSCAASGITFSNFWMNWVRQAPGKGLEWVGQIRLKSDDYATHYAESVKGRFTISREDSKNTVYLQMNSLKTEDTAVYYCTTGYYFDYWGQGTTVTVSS ?
binds

Which binding result reading was recorded for the binder Hab015VL5VH6a-hFc (Fc fusion, humanized mab015, VL-linker-VH-human IgG1 Fc; also called Hab015L5H6a; not shown: linker; human IgG1 Fc fragment) scFv (part 1 of 2): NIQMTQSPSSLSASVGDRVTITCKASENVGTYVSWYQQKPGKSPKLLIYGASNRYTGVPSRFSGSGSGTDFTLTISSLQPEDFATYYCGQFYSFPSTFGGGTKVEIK scFv (part 2 of 2): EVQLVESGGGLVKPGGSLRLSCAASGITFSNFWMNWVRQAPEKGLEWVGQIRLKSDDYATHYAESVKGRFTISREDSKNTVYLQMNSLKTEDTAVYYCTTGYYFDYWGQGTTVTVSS ?
binds
